Provenance of the data: paper PMC3743159

Molecular target: UniProtKB P08842
Sequence (P08842 22-583): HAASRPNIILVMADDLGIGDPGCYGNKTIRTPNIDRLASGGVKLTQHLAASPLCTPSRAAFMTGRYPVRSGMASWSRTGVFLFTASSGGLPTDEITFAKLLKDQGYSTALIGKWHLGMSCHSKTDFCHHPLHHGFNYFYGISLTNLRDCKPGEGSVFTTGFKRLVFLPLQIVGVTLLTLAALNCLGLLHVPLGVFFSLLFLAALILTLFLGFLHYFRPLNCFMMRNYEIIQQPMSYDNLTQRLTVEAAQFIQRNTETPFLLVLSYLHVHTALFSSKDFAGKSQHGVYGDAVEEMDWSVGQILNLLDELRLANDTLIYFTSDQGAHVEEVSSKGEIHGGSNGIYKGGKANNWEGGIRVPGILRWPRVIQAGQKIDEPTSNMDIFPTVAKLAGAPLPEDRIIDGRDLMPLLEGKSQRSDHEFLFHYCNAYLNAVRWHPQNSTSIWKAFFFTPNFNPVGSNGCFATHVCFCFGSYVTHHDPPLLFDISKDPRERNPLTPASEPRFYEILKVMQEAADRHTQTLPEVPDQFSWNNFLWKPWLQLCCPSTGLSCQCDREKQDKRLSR
Assay: In vitro inhibition of STS
Conditions: STS IC50, JEG-3 cell preparation; sulfamates
Catalogue of compounds with associated IC50

compound: N#Cc1ccc(N(Cc2ccc(OS(N)(=O)=O)cc2Br)n2cnnc2)cc1 [Compound 19]
targetSystem: UniProtKB P08842
IC50, nM: 29

compound: N#Cc1ccc(N(Cc2ccc(OS(N)(=O)=O)c(F)c2F)n2cnnc2)cc1 [Compound 13]
targetSystem: UniProtKB P08842
IC50, nM: 48

compound: N#Cc1ccc(N(Cc2ccc(OS(N)(=O)=O)cc2Cl)n2cnnc2)cc1 [Compound 17]
targetSystem: UniProtKB P08842
IC50, nM: 40

compound: N#Cc1ccc(N(Cc2c(F)cc(OS(N)(=O)=O)cc2F)n2cnnc2)cc1 [Compound 12]
targetSystem: UniProtKB P08842
IC50, nM: 39

compound: NS(=O)(=O)Oc1ccc(CN(c2cc(F)cc(F)c2)n2cnnc2)cc1 [Compound 21]
targetSystem: UniProtKB P08842
IC50, nM: 45
